meta.source: patent US6281214A

The entries below are paired with their reported pKi.
Target: serotonin S2 receptor (Rattus norvegicus)
Construct: The receptor fraction prepared from the cortex was molten and suspended; from tissue; host or cells: cerebral cortex of SD rats (membrane fraction)
Assay: serotonin S2 receptor binding test ([3H] Ketanserin Binding Test)
Set-up: species or system SD rats
Settings: 1 nM [3H] Ketanserin, rat cortex, 37° C., 15 minutes
API: returns pKi as number; meaning -log10 of concentration in mol/L.

Field: example entries. Status: answers known.
[
  {
    "line_notation": "CCS(=O)(=O)c1cc(N2CCN(CCF)CC2)cc(-c2ccc(F)cc2)c1OC",
    "observation_type": "pKi",
    "data_value": 7.26
  },
  {
    "line_notation": "O=C(Cc1ccccc1)c1cc(N2CCNCC2)cc(-c2ccccc2)c1O",
    "observation_type": "pKi",
    "data_value": 6.33
  }
]

Item CCN1CCN(c2cc(-c3ccccc3)c(OC)c(S(=O)(=O)CCC#N)c2)CC1 has what recorded pKi?
7.09

###

# log10(Ki) measurements, system: serotonin S2 receptor (Rattus norvegicus, UniProt P14842)
# Sequence (P14842 whole entry): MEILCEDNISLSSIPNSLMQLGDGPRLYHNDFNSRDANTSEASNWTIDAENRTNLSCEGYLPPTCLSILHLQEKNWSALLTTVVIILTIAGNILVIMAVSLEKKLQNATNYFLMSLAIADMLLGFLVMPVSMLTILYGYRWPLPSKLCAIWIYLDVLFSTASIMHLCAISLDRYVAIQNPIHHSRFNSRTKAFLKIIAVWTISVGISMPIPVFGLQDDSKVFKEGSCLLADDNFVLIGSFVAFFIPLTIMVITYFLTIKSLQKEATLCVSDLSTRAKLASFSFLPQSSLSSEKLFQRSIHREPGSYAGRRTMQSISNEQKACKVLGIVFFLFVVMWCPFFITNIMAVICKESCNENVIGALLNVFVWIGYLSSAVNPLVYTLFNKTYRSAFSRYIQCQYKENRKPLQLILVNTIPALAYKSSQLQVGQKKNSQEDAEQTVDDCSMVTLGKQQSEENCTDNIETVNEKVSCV
Recall that a logarithmic scale is used here: each number is log10 of Ki in nM.

Field: example entries. Status: answers known.
[
  {
    "compound": "CCCS(=O)(=O)Nc1cc(N2CCN(CC)CC2)cc(-c2ccc(OC)cc2)c1Cl",
    "study_system": "serotonin S2 receptor (Rattus norvegicus, UniProt P14842)",
    "data_value": 1.58
  },
  {
    "compound": "CC[C@H](F)c1cc(N2CCN(C)CC2)cc(-c2ccccc2C)c1Cl",
    "study_system": "serotonin S2 receptor (Rattus norvegicus, UniProt P14842)",
    "data_value": 0.66
  },
  {
    "compound": "C=CCCC(F)c1cc(N2CCN(CC)CC2)cc(-c2ccccc2)c1OC (centres unmarked)",
    "study_system": "serotonin S2 receptor (Rattus norvegicus, UniProt P14842)",
    "data_value": 0.33
  },
  {
    "compound": "CCC(=O)c1cc(-c2ccccc2)cc(N2CCN(CC)CC2)c1",
    "study_system": "serotonin S2 receptor (Rattus norvegicus, UniProt P14842)",
    "data_value": 1.76
  }
]

Item CCCS(=O)(=O)Nc1cc(N2CCN(C)CC2)cc(-c2ccccc2Cl)c1Cl has what recorded log10(Ki)?
0.53

###

# pKi measurements, system: serotonin S2 receptor (Rattus norvegicus, UniProt P14842)
API: returns pKi as number; meaning -log10 of concentration in mol/L.

[
  {
    "molecule": "CN1CCN(c2cc(NS(=O)(=O)Cc3ccccc3)c(Cl)c(-c3ccccc3Cl)c2)CC1 [Example 179]",
    "study_system": "serotonin S2 receptor (Rattus norvegicus, UniProt P14842)",
    "pKi": 8.18
  },
  {
    "molecule": "CCCC(F)c1cc(N2CCN(CC)CC2)cc(-c2ccccc2Cl)c1Cl (centres unmarked) [Example 54]",
    "study_system": "serotonin S2 receptor (Rattus norvegicus, UniProt P14842)",
    "pKi": 7.43
  },
  {
    "molecule": "CC(C)S(=O)(=O)Nc1cc(N2CCN(C)CC2)cc(-c2ccccc2Cl)c1Cl [Example 182]",
    "study_system": "serotonin S2 receptor (Rattus norvegicus, UniProt P14842)",
    "pKi": 6.84
  }
]

Under serotonin S2 receptor (Rattus norvegicus, UniProt P14842): pKi value of CCN1CCN(c2cc(CCCOCOC)c(OC)c(-c3ccccc3)c2)CC1 [Example 69] ?
7.17

Under serotonin S2 receptor (Rattus norvegicus, UniProt P14842): pKi value of CCN1CCN(c2cc(CCO)c(OC)c(-c3ccccc3)c2)CC1 [Example 66] ?
7.18

Under serotonin S2 receptor (Rattus norvegicus, UniProt P14842): pKi value of CCC(F)c1cc(N2CCN(CC)CC2)cc(-c2ccccc2)c1Cl (centres unmarked) [Example 127] ?
7.94

Under serotonin S2 receptor (Rattus norvegicus, UniProt P14842): pKi value of CCCN1CCN(c2cc(-c3ccccc3C)c(Cl)c(C(F)CC)c2)CC1 (centres unmarked) [Example 151] ?
7.56

Under serotonin S2 receptor (Rattus norvegicus, UniProt P14842): pKi value of CCN1CCN(c2cc(NS(=O)(=O)CC(F)(F)F)c(Cl)c(-c3ccccc3Cl)c2)CC1 [Example 163] ?
7.20

Under serotonin S2 receptor (Rattus norvegicus, UniProt P14842): pKi value of CCCC(O)c1cc(N2CCN(C)CC2)cc(-c2ccccc2C)c1Cl (centres unmarked) [Example 174] ?
7.31

Under serotonin S2 receptor (Rattus norvegicus, UniProt P14842): pKi value of CCS(=O)(=O)c1cc(N2CCN(CCc3ccncc3)CC2)cc(-c2ccc(F)cc2)c1OC [Example 201] ?
8.50

Under serotonin S2 receptor (Rattus norvegicus, UniProt P14842): pKi value of CCN1CCN(c2cc(-c3ccccc3)c(OC)c([S+]([O-])Cc3ccccc3)c2)CC1 (centres unmarked) [Example 119] ?
7.46

Under serotonin S2 receptor (Rattus norvegicus, UniProt P14842): pKi value of CCC(F)c1cc(N2CCN(CC)CC2)cc(-c2ccccc2C#N)c1Cl (centres unmarked) [Example 21] ?
7.84

Under serotonin S2 receptor (Rattus norvegicus, UniProt P14842): pKi value of CCC(F)c1cc(N2CCN(CC)CC2)cc(-c2c(C)cccc2C)c1Cl (centres unmarked) [Example 215] ?
7.82

Under serotonin S2 receptor (Rattus norvegicus, UniProt P14842): pKi value of CCC(F)c1cc(N2CCN(CC)CC2)cc(-c2ccc(F)cc2C)c1Cl (centres unmarked) [Example 142] ?
7.69

Under serotonin S2 receptor (Rattus norvegicus, UniProt P14842): pKi value of CCN1CCN(c2cc(NS(=O)(=O)CCCCl)c(Cl)c(-c3ccccc3C)c2)CC1 [Example 165] ?
8.21

Under serotonin S2 receptor (Rattus norvegicus, UniProt P14842): pKi value of COc1c(-c2ccccc2)cc(N2CCN(CCO)CC2)cc1-c1ccccc1 [Example 64] ?
6.55

###

The entries below are paired with their reported log10 of Ki.
Molecular target: dopamine D2 receptor (Rattus norvegicus, UniProt P61169)
Construct: the receptor fraction prepared from the corpus striatum was molten and suspended; from tissue; host or cells: corpus striatum of SD rats (membrane fraction)
Sequence (P61169 whole entry): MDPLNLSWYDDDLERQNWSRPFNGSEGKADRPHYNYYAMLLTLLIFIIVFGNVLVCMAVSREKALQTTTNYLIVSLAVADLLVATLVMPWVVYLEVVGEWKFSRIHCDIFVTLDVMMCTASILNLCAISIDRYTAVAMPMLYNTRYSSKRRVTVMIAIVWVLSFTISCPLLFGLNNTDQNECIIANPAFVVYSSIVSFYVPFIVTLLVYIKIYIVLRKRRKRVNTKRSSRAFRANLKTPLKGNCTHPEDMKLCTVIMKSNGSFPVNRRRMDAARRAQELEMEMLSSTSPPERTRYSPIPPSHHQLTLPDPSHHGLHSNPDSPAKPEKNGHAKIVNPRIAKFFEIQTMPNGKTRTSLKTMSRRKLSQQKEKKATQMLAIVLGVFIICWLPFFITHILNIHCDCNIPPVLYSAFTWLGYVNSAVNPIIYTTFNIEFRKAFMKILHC
Experiment: dopamine D2 receptor binding test ([3H] Spiperone Binding Test)
Parameters: species or system SD rats
Details: 1 nM [3H] Spiperone, rat corpus striatum, room temperature, 60 minutes; read-out: Ki value, dopamine D2 receptor
Recall that a logarithmic scale is used here: each number is log10 of Ki in nM.

Field: example entries. Status: answers known.
[
  {
    "molecule": "CCN1CCN(c2cc(-c3ccccc3)c(OC)c(C(O)c3ccccn3)c2)CC1 (stereo not drawn)",
    "log10 of Ki": 2.99
  },
  {
    "molecule": "CCN1CCN(c2cc(-c3ccccc3C)c(Cl)c(S(C)(=O)=O)c2)CC1",
    "log10 of Ki": 1.09
  },
  {
    "molecule": "CCCOCc1cc(N2CCN(CC)CC2)cc(-c2ccccc2C)c1Cl",
    "log10 of Ki": 1.50
  },
  {
    "molecule": "CCCS(=O)(=O)Nc1cc(N2CCN(CC)CC2)cc(-c2ccccc2C)c1Cl [Example 153]",
    "log10 of Ki": 0.18
  },
  {
    "molecule": "CCCCS(=O)(=O)c1cc(N2CCN(CC)CC2)cc(-c2ccccc2)c1OC",
    "log10 of Ki": 1.94
  }
]

Item CCCS(=O)(=O)Nc1cc(N2CCN(CC)CC2)cc(-c2ccccc2C=O)c1Cl has what recorded log10 of Ki?
0.74

Item CCCS(=O)(=O)c1cc(N2CCN(C)CC2)cc(-c2ccc(F)cc2)c1OC has what recorded log10 of Ki?
1.29

Item CCCN1CCN(c2cc(-c3ccccc3C)c(Cl)c(C(F)CC)c2)CC1 (stereo not drawn) has what recorded log10 of Ki?
0.55

Item CCN1CCN(c2cc(-c3ccc(F)cc3)c(OC)c(C(C)C)c2)CC1 has what recorded log10 of Ki?
0.63

Item CCN1CCN(c2cc(-c3ccccc3)c(Cl)c(S(=O)(=O)CC)c2)CC1 has what recorded log10 of Ki?
0.37

###

Target: serotonin S2 receptor (Rattus norvegicus)
Construct: The receptor fraction prepared from the cortex was molten and suspended; from tissue; host or cells: cerebral cortex of SD rats (membrane fraction)
Test: serotonin S2 receptor binding test ([3H] Ketanserin Binding Test)
Set-up: species or system SD rats
Settings: 1 nM [3H] Ketanserin, rat cortex, 37° C., 15 minutes
pKi: −log10 of the molar value.
Would you mind labelling by pKi? At or over 8 is Met, under is Not met.

Some entries whose results are on file:
[
  {
    "compound": "CCCS(=O)(=O)Nc1cc(N2CCN(CC)CC2)cc(-c2ccccc2C)c1Cl [Example 153]",
    "cat": "Met"
  },
  {
    "compound": "CCCNS(=O)(=O)c1cc(N2CCN(CC)CC2)cc(-c2ccccc2C)c1Cl",
    "cat": "Not met"
  },
  {
    "compound": "CCN1CCN(c2ccc(OC)c(-c3ccccc3)c2)CC1",
    "cat": "Not met"
  }
]

Then this compound:
Would you say CCN1CCN(c2cc(-c3ccccc3C)c(Cl)c(S(=O)(=O)N3CCCC3)c2)CC1 shows pKi at minimum 8?
Not met
